FYI, the data here is from ChEMBL document CHEMBL2311472.

Form field: EC50 (one value per entry).
Tested on: Sabia virus
Test: Antiviral activity against Sabia virus
Assay type: functional
measured-metric: EC50 (nM)

{"columns": ["chemical-smiles", "measured-metric", "u", "observed-result"],
 "data": [
  ["CCOc1ccc(-n2cnc3cc(NCc4ccc(CC)cc4)cnc32)cc1", "EC50", "nM", 54],
  ["COc1ccc(-n2cnc3cc(NCc4ccc(C(C)C)cc4)ccc32)cc1", "EC50", "nM", 21],
  ["CCOc1ccc(-c2c[nH]c3cc(NCc4ccc(CC)cc4)ccc23)cc1", "EC50", "nM", 3.9],
  ["CCOc1ccc(-n2nnc3cc(NCc4ccc(CC)cc4)cnc32)cc1", "EC50", "nM", 93]
]}
